assay-target: VIM-1 (Pseudomonas aeruginosa)
measurement-notes: Inhibitory activity on MBL, fluorescent substrate FC-5
Type: biochemical
run-conditions: read-out: Inhibitory activity on MBL VIM-1 (IC50 class)

# molecule, IC50
rows = [
    ("O=C(O)c1c(Cn2cc3c(n2)CNC3)ccc2c1OB(O)CC2 [Compound 56-Na]", "10 to 1000 nM"),
    ("NCCc1cn(Cc2ccc3c(c2C(=O)O)OB(O)CC3)nn1", "1000 to 100000 nM"),
    ("NC1(c2cnn(Cc3ccc4c(c3C(=O)O)OB(O)CC4)c2)CC1", "1000 to 100000 nM"),
    ("NC(=O)c1cnn(Cc2ccc3c(c2C(=O)O)OB(O)CC3)c1", "10 to 1000 nM"),
    ("NC1CN(Cc2cnn(Cc3ccc4c(c3C(=O)O)OB(O)CC4)c2)C1", "1000 to 100000 nM"),
    ("NC(=O)N1Cc2cn(Cc3ccc4c(c3C(=O)O)OB(O)CC4)nc2C1", "10 to 1000 nM"),
    ("NC1CN(C(=O)c2cnn(Cc3ccc4c(c3C(=O)O)OB(O)CC4)c2)C1", "10 to 1000 nM"),
    ("CO[C@H]1Cc2ccc(Cn3cc(CN)cn3)c(C(=O)O)c2OB1O", "1000 to 100000 nM"),
    ("N=C(N)NCc1cnn(Cc2ccc3c(c2C(=O)O)OB(O)CC3)c1", "1000 to 100000 nM"),
]

* * *

assay-target: KPC-2 (Klebsiella pneumoniae, UniProt Q9F663)
Sequence (Q9F663 25-293 limits assumed): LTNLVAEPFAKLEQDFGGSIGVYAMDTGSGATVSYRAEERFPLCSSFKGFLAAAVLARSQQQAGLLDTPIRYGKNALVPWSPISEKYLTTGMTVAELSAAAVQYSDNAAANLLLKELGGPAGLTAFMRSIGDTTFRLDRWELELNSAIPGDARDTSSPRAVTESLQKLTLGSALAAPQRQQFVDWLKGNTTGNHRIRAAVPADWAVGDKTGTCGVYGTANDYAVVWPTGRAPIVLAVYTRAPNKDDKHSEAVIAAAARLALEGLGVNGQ
measurement-notes: Inhibitory activity on SBL, fluorescent substrate FC-5
Assay type: biochemical
run-conditions: read-out: Inhibitory activity on SBL KPC-2 (IC50 class)
Entries annotated with measured IC50

# molecule, IC50
data = [
    ("C[C@H]1Cc2ccc(Cn3ccnn3)c(C(=O)O)c2OB1O [Compound 29]", "< 10 nM"),
    ("N=C(N)NCCCc1cn(Cc2ccc3c(c2C(=O)O)OB(O)CC3)nn1 [Compound 48]", "< 10 nM"),
    ("C[C@]1(Cn2ccnn2)[C@H](C(=O)O)N2C(=O)C[C@H]2S1(=O)=O [Tazobactam, reference compound]", "1000 to 100000 nM"),
    ("N=C(N)N1Cc2cn(Cc3ccc4c(c3C(=O)O)OB(O)CC4)nc2C1 [Compound 58]", "< 10 nM"),
]

* * *

# maps each entry to its IC50
assay-target: CTX-M-14 (Escherichia coli, UniProt Q9L5C7)
Sequence (Q9L5C7 entry or part of it): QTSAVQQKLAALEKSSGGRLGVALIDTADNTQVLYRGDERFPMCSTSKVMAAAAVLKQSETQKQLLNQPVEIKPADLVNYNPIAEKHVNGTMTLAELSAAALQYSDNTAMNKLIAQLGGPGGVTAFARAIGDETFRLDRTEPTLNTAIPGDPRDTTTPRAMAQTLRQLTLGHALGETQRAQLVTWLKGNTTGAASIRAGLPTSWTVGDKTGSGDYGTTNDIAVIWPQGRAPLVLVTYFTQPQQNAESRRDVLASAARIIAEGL
measurement-notes: Inhibitory activity on SBL, fluorescent substrate FC-5
Format: biochemical
run-conditions: read-out: Inhibitory activity on SBL CTX-M-14 (IC50 class)

# molecule, assay-target, IC50
rows = [
    ("O=C(O)c1c(Cn2cc3c(n2)CNC3)ccc2c1OB(O)CC2 [Compound 56]", "CTX-M-14 (Escherichia coli, UniProt Q9L5C7)", "10 to 1000 nM"),
    ("O=C(O)c1c(Cn2ccnn2)ccc2c1OB(O)CC2 [Compound 2]", "CTX-M-14 (Escherichia coli, UniProt Q9L5C7)", "10 to 1000 nM"),
    ("O=C(O)c1c(Cn2cc3c(n2)CNC3)ccc2c1OB(O)CC2 [Compound 56-Na]", "CTX-M-14 (Escherichia coli, UniProt Q9L5C7)", "10 to 1000 nM"),
    ("O=C(O)c1c(Cn2cccn2)ccc2c1OB(O)CC2 [Compound 14]", "CTX-M-14 (Escherichia coli, UniProt Q9L5C7)", "< 10 nM"),
    ("NC1CCC(c2cn(Cc3ccc4c(c3C(=O)O)OB(O)CC4)nn2)CC1 (stereo not drawn) [Compound 11]", "CTX-M-14 (Escherichia coli, UniProt Q9L5C7)", "10 to 1000 nM"),
    ("NCc1ccc(-c2cn(Cc3ccc4c(c3C(=O)O)OB(O)CC4)nn2)cc1 [Compound 63]", "CTX-M-14 (Escherichia coli, UniProt Q9L5C7)", "10 to 1000 nM"),
    ("NC1CN(Cc2cnn(Cc3ccc4c(c3C(=O)O)OB(O)CC4)c2)C1 [Compound 75]", "CTX-M-14 (Escherichia coli, UniProt Q9L5C7)", "1000 to 100000 nM"),
    ("N=C(N)NCCCc1cn(Cc2ccc3c(c2C(=O)O)OB(O)CC3)nn1 [Compound 48]", "CTX-M-14 (Escherichia coli, UniProt Q9L5C7)", "10 to 1000 nM"),
    ("O=C(O)c1c(Cn2cc(F)cn2)ccc2c1OB(O)CC2 [Compound 15]", "CTX-M-14 (Escherichia coli, UniProt Q9L5C7)", "10 to 1000 nM"),
]

The reported measurements were obtained from patent US20250205259A1.
